Molecular target: TRKB (Homo sapiens)
Construct: purchased Carna Biosciences
Sequence (Q16620 32-822): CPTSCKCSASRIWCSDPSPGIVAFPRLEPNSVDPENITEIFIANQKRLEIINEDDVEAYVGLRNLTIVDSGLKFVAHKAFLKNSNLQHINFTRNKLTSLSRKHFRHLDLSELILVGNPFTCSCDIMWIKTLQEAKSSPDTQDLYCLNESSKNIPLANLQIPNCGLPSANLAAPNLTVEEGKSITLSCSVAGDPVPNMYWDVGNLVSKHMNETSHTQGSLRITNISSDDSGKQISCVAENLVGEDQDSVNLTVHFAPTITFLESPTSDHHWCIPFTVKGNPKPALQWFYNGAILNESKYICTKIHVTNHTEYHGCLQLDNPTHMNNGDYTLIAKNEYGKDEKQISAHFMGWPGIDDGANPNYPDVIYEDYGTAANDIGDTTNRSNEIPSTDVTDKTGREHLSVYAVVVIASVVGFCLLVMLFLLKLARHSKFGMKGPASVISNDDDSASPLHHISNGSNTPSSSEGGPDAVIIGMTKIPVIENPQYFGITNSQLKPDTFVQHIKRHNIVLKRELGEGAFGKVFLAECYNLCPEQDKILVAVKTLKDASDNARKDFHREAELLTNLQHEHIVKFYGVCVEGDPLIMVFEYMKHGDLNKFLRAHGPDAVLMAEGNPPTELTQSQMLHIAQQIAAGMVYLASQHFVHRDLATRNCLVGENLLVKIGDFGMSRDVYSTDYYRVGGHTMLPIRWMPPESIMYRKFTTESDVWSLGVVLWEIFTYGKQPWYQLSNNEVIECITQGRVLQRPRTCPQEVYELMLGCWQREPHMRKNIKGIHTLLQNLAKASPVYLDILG
Experiment: cell-free kinase assay
Format: biochemical
pIC50: −log10 of the molar value.

- Compound: "CC(C)C(C)CNCc1ccc2c(c1)[nH]/c(=N\\C(=O)c1ccc(C3=CN=NC3)s1)n2CC(C)(C)O (stereo not shown) [BI 10N]"
  Measurement target: "TRKB (Homo sapiens)"
  pIC50: 8.89

====

Target: HGK (Homo sapiens, UniProt O95819)
Sequence (O95819 whole entry): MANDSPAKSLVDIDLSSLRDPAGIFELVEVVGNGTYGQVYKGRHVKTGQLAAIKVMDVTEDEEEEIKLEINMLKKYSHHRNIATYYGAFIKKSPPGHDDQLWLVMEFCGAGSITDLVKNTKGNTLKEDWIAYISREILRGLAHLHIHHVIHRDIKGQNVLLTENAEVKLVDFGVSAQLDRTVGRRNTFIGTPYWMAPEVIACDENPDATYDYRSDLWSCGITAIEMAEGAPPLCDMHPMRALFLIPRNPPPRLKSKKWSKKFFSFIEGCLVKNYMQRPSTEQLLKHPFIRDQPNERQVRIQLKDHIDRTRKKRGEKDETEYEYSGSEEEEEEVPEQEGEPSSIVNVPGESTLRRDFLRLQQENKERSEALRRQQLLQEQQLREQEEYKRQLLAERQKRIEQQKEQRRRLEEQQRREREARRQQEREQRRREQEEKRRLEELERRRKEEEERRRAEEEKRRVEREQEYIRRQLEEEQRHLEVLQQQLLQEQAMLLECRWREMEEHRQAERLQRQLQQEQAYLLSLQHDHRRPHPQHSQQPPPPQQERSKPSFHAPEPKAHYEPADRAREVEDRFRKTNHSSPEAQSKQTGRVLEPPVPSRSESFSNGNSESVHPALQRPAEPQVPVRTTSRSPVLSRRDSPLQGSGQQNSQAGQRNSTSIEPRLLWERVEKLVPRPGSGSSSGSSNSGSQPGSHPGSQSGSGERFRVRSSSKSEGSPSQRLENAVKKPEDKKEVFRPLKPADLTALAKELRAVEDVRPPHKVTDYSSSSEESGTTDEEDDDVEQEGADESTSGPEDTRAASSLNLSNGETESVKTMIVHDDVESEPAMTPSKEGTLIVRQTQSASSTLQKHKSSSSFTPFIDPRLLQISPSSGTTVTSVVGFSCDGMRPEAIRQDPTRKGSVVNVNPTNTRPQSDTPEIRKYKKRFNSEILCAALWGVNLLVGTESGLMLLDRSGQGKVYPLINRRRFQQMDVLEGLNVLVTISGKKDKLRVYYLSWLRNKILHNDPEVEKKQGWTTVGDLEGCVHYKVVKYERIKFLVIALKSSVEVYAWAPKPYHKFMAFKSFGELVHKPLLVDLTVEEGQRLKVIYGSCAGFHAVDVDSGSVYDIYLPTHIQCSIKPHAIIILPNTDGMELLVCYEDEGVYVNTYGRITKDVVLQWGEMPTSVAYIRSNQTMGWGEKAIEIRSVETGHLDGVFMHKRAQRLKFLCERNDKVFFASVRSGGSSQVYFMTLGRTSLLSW
Parameter: IC50 (nM)

- Compound: "CC(C)C(C)CNCc1ccc2c(c1)[nH]/c(=N\\C(=O)c1ccc(C3=CN=NC3)s1)n2CC(C)(C)O (stereo not shown) [BI 10N]"
  Measurement target: "HGK (Homo sapiens, UniProt O95819)"
  Result: 12.1
